# ASSAY PROTOCOL: ATG_SREBP_CIS: Attagene CIS-FACTORIAL HepG2 Assay for human Sterol Regulatory Element Binding (SREBP) (AID 2282962)
# SETUP CONDITIONS: HepG2 Attagene cis-factorial SREBP reporter, mRNA; actives raise or lower the signal
Calls of active or inactive are those of the source. How the source made its calls: active means hit-call score of the fitted dose curve at least 0.9, where 1 is the maximum; inactive means score below 0.9.
Select the matching outcome among 1.0 for active, 0.0 for inactive

Which outcome was entered for the compound COP(N)(=S)OC in this test?
0.0

Which outcome was entered for the compound CCOC(=O)c1ccccc1C(=O)OCC in this test?
0.0

Which outcome was entered for the compound O=S1(=O)OCC2C(CO1)C1(Cl)C(Cl)=C(Cl)C2(Cl)C1(Cl)Cl (stereo not drawn) in this test?
1.0

Which outcome was entered for the compound CC(C)(C)c1ccccc1OP(=O)(Oc1ccccc1)Oc1ccccc1 in this test?
1.0

Which outcome was entered for the compound O=c1ssc(Cl)c1Cl in this test?
0.0

Which outcome was entered for the compound CC1=C(C(=O)Nc2ccccc2)S(=O)(=O)CCO1 in this test?
0.0

---
Which outcome was entered for the compound CC(Cc1ccc(OCC(=O)O)cc1)NCC(O)c1csc(C(F)(F)F)n1 (stereo not drawn) in this test?
0.0

Which outcome was entered for the compound O=C(O)C(Cl)Cl in this test?
0.0

Which outcome was entered for the compound O=C(O)C(F)(F)C(F)(F)C(=O)O in this test?
0.0

Which outcome was entered for the compound CC(Cl)(Cl)C(=O)O in this test?
0.0

Which outcome was entered for the compound c1ccc(OP(Oc2ccccc2)Oc2ccccc2)cc1 in this test?
0.0

Which outcome was entered for the compound OCC(F)(F)OC(F)(F)C(F)(F)OC(F)(F)CO in this test?
0.0

Which outcome was entered for the compound O=P(Oc1ccccc1)(Oc1ccccc1)Oc1ccccc1 in this test?
1.0

###

# ASSAY PROTOCOL: CCTE_Mundy_HCI_Cortical_Synap_Neur_Matur_NeuriteCount: CCTE's Synaptogenesis and Neurite Maturation Assay in rat cortical cells for Neurite Count, Mundy Lab (AID 2284222);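 further: exposure from day 7 to day 12 in vitro with readout at day 12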
# Protocol: CCTE_Mundy_HCI_Cortical_Synap&Neurite_Matur is a multiplexed, cell-based-readout assay that uses rat primary cortical cells with measurements taken at 288.33 hours after chemical dosing in a microplate: 96-well plate.CCTE_Mundy_HCI_Cortical_Synap_Neur_Matur_NeuriteCount is one of eight components of the CCTE_Mundy_HCI_Cortical_Synap&Neurite_Matur assay. It measures synaptogenesis and neurite maturation related to number of neurites using High Content Imaging of fluorescently labelled markers.[…] […]
Activity calls are given as the source filed them. The calls were made as follows: active = hit-call score of the fitted dose curve at least 0.9, where 1 is the maximum; inactive = score below 0.9.
MEASURED METRIC: outcome

What does the record list as outcome for CC(C)(C)c1ccccc1OP(=O)(Oc1ccccc1)Oc1ccccc1 ?
inactive

What does the record list as outcome for CCC1(c2ccccc2)C(=O)N=C(O)NC1=O (centres undefined) ?
inactive

What does the record list as outcome for CCOc1ccc(C(C)(C)COCc2cccc(Oc3ccccc3)c2)cc1 ?
inactive

What does the record list as outcome for O=P1(N(CCCl)CCCl)NCCCO1 (centres undefined) ?
inactive

###

# Read-out: Monokine induced gamma interferon (MIG), CXCL9 (gene 4283)
# ASSAY PROTOCOL: BSK_3C_MIG: BioMAP Diversity Plus: 3C Assay for Monokine induced gamma interferon (MIG) Biomarker Activity (AID 2283021)
# SETUP CONDITIONS: primary human endothelial cells (HUVEC); actives raise or lower the signal
Active and inactive are the calls of the source. Rule for the calls: active = hit-call score of the fitted dose curve at least 0.9, where 1 is the maximum; inactive = score below 0.9.
Select the matching outcome among active, inactive

Which outcome was entered for the compound CCCCc1ccccc1 in this test?
inactive

Which outcome was entered for the compound CCOP(=S)(OCC)SCn1nnc2ccccc2c1=O in this test?
inactive

Which outcome was entered for the compound O=C(O)C(F)(OC(F)(F)C(F)(F)C(F)(F)F)C(F)(F)F (stereo not given) in this test?
inactive

Which outcome was entered for the compound CCCCN(CCCC)N=O in this test?
inactive

Which outcome was entered for the compound CC(C)(C)OOC(C)(C)C in this test?
inactive

Which outcome was entered for the compound O=C(O)C1C(C(=O)O)C2(Cl)C(Cl)=C(Cl)C1(Cl)C2(Cl)Cl (stereo not given) in this test?
inactive

Which outcome was entered for the compound c1cc2c3c(cccc3c1)CC2 in this test?
inactive

Which outcome was entered for the compound COP(N)(=S)OC in this test?
inactive

Which outcome was entered for the compound CC(C)Nc1ccc(Nc2ccccc2)cc1 in this test?
active

Which outcome was entered for the compound [N-]=[N+]=[N-] in this test?
inactive
